# target-desc: RORγt-LBD (Homo sapiens)
# experiment-summary: Time-resolved fluorescence resonance energy-transfer assay (TR-FRET), co-activator peptide recruitment
# Format: biochemical
# experimental-conditions: His-RORγt-LBD 30 nM, SRC peptide 500 nM; agonistic activity; averages of one or more measurements; read-out: TR-FRET Biochemical EC50/
value-kind: EC50 (nM)

[[record]]
compound = "CCOC(=O)C(=O)N1CCN2c3ccc(/C=C/c4c(Cl)cccc4C(F)(F)F)cc3N(S(=O)(=O)c3cccc(C(F)(F)F)c3)C[C@@H]2C1 [Example 58]"
val = 19.4

[[record]]
compound = "CC1(C)C=C(c2ccc3c(c2)N(S(=O)(=O)c2cccc(C(F)(F)F)c2)C[C@@H]2CN(C4COC4)CCN32)CC(C)(C)O1 [Example 34]"
val = 3.91

[[record]]
compound = "N#Cc1ccc(F)c(-c2ccc3c(c2)N(S(=O)(=O)c2cccc(C(F)(F)F)c2)C[C@@H]2CN(CC(=O)O)CCN32)c1 [Example 96]"
val = 31.4


a: C/C(=C\c1ccc2c(c1)N(S(=O)(=O)c1cccc(C(F)(F)F)c1)C[C@@H]1CN(C(CO)(CO)C(N)=O)CCN21)c1c(F)cccc1Cl [Example 75]
b: CC(=O)N1CCN2c3ccc(/C=C/c4c(Cl)cccc4C(F)(F)F)cc3N(S(=O)(=O)c3cccc(OC(F)(F)F)c3)C[C@@H]2C1 [Example 84]
c: C/C(=C\c1ccc2c(c1)N(S(=O)(=O)c1cccc(C(F)(F)F)c1)C[C@@H]1CNCCN21)c1c(F)cccc1Cl [Example 10]
# sort list by recorded EC50, greatest to least Give me the labels in the order the question wants.
b, a, c

###

# target-desc: RORγt-LBD (Homo sapiens)
# experiment-summary: Time-resolved fluorescence resonance energy-transfer assay (TR-FRET), co-activator peptide recruitment
# Type: biochemical
# Set-up: unit not given here
# experimental-conditions: upper activation limit; His-RORγt-LBD, SRC peptide
value-kind: TR-FRET Biochemical Amax

[[record]]
smiles_repr = "C/C(=C\\c1ccc2c(c1)N(S(=O)(=O)c1cccc(C(F)(F)F)c1)C[C@@H]1CN(CC(=O)OCOC(=O)OC(C)C)CCN21)c1c(F)cccc1Cl"
target_desc = "RORγt-LBD (Homo sapiens)"
val = 0.61

[[record]]
smiles_repr = "O=C(O)CN1CCN2c3ccc(/C=C/c4c(Cl)cccc4C(F)(F)F)cc3N(S(=O)(=O)c3cccc(C(F)(F)F)c3)C[C@H]2C1"
target_desc = "RORγt-LBD (Homo sapiens)"
val = 0.98

[[record]]
smiles_repr = "C[C@@]1(OCCC(=O)O)CCN2c3ccc(-c4cc(F)cc(OC(F)F)c4)cc3N(S(=O)(=O)c3cccc(C(F)(F)F)c3)C[C@@H]2C1"
target_desc = "RORγt-LBD (Homo sapiens)"
val = 0.71


###

# target-desc: RORγt (Homo sapiens, UniProt P51449)
# Construct: The plasmid of pFN26A-RORγt-LBD and pG14.35 (Promega, Cat. No. E1370) were co-transfected into HEK 293 cells; expressed in transfected cells; host or cells: HEK 293 cells (Cat. No. GNHu18)
# Sequence (P51449 269-508 limits assumed, species assumed): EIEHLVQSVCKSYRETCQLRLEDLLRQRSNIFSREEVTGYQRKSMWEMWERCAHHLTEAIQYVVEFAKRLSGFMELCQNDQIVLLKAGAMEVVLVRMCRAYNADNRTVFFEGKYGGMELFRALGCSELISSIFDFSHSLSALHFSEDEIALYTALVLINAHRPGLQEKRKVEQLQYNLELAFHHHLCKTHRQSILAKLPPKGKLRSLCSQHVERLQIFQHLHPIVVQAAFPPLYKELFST
# experiment-summary: RORγt cellular reporter gene detection assay;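 also: Ursolic Acid added as 5 µL of 20 µM medium per well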
# Assay type: cell-based
# experimental-conditions: upper activation limit; HEK 293 cells, in presence of antagonist Ursolic acid, 24 hrs
value-kind: Cellular Reporter Assay Amax

a: O=S(=O)(c1cccc(C(F)(F)F)c1)N1C[C@@H]2CC(O[C@@H]3O[C@H](CO)[C@@H](O)[C@H](O)[C@H]3O)CCN2c2ccc(-c3cc(F)cc(OC(F)F)c3)cc21 (stereo partly drawn) [Example 112]
b: NC(=O)CN1CCN2c3ccc(/C=C/c4c(Cl)cccc4C(F)(F)F)cc3N(S(=O)(=O)c3cccc(C(F)(F)F)c3)C[C@@H]2C1 [Example 59]
c: N#Cc1ccc(F)c(-c2ccc3c(c2)N(S(=O)(=O)c2cccc(C(F)(F)F)c2)C[C@@H]2CN(CC(=O)O)CCN32)c1 [Example 96]
Task field, ranking: reported Cellular Reporter Assay Amax, descending order. Give the labels in the order requested.
a, b, c
(a: 5.6, b: 3.5, c: 1.2)

a: COC(=O)CN1CCN2c3ccc(/C=C(\C)c4c(F)cccc4Cl)cc3N(S(=O)(=O)c3cccc(C(F)(F)F)c3)C[C@@H]2C1 [Example 44]
b: CN1c2ccc(C3=CC(C)(C)OC(C)(C)C3)cc2N(S(=O)(=O)c2cccc(C(F)(F)F)c2)C[C@@H]1CCC(=O)O [Example 118]
Compare Cellular Reporter Assay Amax: is it lower for a or for b ? Lab log: write the label of the selected item as the result.
b
